target: Src (Homo sapiens, UniProt P12931); construct: purchased Promega; test: Tyrosine kinase assay (Kinase Selectivity System TK-2, ADP-Glo); type: biochemical; conditions: 1 h incubation, mean ± SD of four experiments
Sequence (P12931 whole entry): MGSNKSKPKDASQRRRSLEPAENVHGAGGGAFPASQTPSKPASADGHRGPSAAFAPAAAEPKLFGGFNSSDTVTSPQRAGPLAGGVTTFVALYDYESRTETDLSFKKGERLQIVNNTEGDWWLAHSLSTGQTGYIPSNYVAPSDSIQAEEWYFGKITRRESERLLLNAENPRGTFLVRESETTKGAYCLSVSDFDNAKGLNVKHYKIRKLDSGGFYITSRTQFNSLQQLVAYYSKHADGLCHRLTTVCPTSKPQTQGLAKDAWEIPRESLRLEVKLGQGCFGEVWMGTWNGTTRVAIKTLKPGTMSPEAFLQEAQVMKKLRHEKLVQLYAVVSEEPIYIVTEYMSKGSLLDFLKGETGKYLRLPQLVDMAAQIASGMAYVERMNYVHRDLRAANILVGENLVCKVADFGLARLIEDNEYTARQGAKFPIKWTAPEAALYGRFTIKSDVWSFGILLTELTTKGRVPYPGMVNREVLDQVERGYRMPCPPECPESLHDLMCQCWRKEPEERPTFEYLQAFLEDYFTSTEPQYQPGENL
endpoint: inhibition at 0.5 µM (%)

compound	inhibition at 0.5 µM [%]
COc1ccccc1/C=C/c1nc(Sc2ccccc2F)c2ccccc2n1	28.2
COc1ccccc1/C=C/c1nc(Sc2cc3c(cc2Br)OCO3)c2ccc(Cl)cc2n1	53.4
COc1ccc(/C=C/c2nc(Sc3cc4c(cc3Br)OCO4)c3ccccc3n2)c(OC)c1	21
COc1ccccc1/C=C/c1nc(Sc2cc3c(cc2Br)OCO3)c2ccccc2n1	40.9
COc1ccccc1/C=C/c1nc(Sc2cc(Cl)ccc2Cl)c2ccccc2n1	0
COc1ccccc1/C=C/c1nc(Sc2ccc(SC)cc2)c2ccccc2n1	54
COc1ccccc1/C=C/c1nc(Sc2cccc(Cl)c2)c2ccccc2n1	58
COc1ccccc1/C=C/c1nc(Sc2ccccc2Cl)c2ccccc2n1	79

I: COc1ccccc1/C=C/c1nc(Sc2ccccn2)c2ccc(Cl)cc2n1
II: COc1ccc(/C=C/c2nc(Sc3ccccc3Cl)c3ccccc3n2)c(OC)c1
Prompt: Parameter check: reported inhibition at 0.5 µM is higher for which label, I or II ? Respond using the label that marks the chosen record.
Response: I
(I: 40.5%, II: 0%)

---

tested on: HCT 116 p53+/+; assay: Cytotoxicity studies (MTS), antiproliferative activity; format: cell-based, human; settings: versus NHDF
The following compounds are shown together with reported Selectivity index HCT 116 p53+/+ values.
# output: bare number, no unit

compound	study system	Selectivity index HCT 116 p53+/+
COc1ccccc1/C=C/c1nc(Sc2ccc3c(c2)OCO3)c2ccccc2n1	HCT 116 p53+/+	2.33
COc1ccccc1/C=C/c1nc(Sc2ccccc2Cl)c2ccccc2n1	HCT 116 p53+/+	1.00
NC(=O)c1cccc(-c2cc(Nc3ccc(OC(F)(F)F)cc3)ncn2)c1 [GNF-2, reference compound]	HCT 116 p53+/+	1.00
COc1ccc(/C=C/c2nc(Sc3ccccc3Cl)c3ccccc3n2)c(OC)c1	HCT 116 p53+/+	1.67

As a next step, examine the compound that follows.
Prompt: Value lookup for Selectivity index HCT 116 p53+/+; key = COc1ccccc1/C=C/c1nc(Sc2cccc(O)c2)c2ccccc2n1
Response: 1.00

---

target: CSK (Homo sapiens); construct: purchased Promega; assay: Tyrosine kinase assay (Kinase Selectivity System TK-2, ADP-Glo); assay type: biochemical; details: 1 h incubation, mean ± SD of four experiments
endpoint: inhibition at 0.5 µM (%)

# example entries with known answers
compound	endpoint	quantitative readout
COc1ccc(/C=C/c2nc(Sc3ccccc3Cl)c3ccccc3n2)cc1	inhibition at 0.5 µM	0
NC(=O)c1cccc(-c2cc(Nc3ccc(OC(F)(F)F)cc3)ncn2)c1 [GNF-2, reference compound]	inhibition at 0.5 µM	0
CNC(=O)c1ccccc1Sc1ccc2c(/C=C/c3ccccn3)n[nH]c2c1 [Axitinib, axitinib, reference compound]	inhibition at 0.5 µM	11.4
COc1cccc(Sc2nc(/C=C/c3ccccc3OC)nc3ccccc23)c1	inhibition at 0.5 µM	39.3
COc1ccccc1/C=C/c1nc(Sc2cc3c(cc2Br)OCO3)c2ccccc2n1	inhibition at 0.5 µM	50.7
COc1ccccc1/C=C/c1nc(Sc2ccccc2Cl)c2ccccc2n1	inhibition at 0.5 µM	51.1
COc1ccccc1/C=C/c1nc(Sc2cc3c(cc2Br)OCO3)c2ccc(Cl)cc2n1	inhibition at 0.5 µM	33.1
COc1cccc(Sc2nc(/C=C/c3ccccc3OC)nc3cc(Cl)ccc23)c1	inhibition at 0.5 µM	0

A: COc1ccc(/C=C/c2nc(Sc3cc4c(cc3Br)OCO4)c3ccccc3n2)c(OC)c1
B: COc1ccccc1/C=C/c1nc(Sc2ccc(SC)cc2)c2ccccc2n1
Prompt: Among A and B , which shows a numerically higher inhibition at 0.5 µM result? // caller expects the label of the chosen entry
Response: B
(B: 39.2%, A: 7.77%)

1: COc1ccccc1/C=C/c1nc(Sc2ccccc2F)c2ccccc2n1
2: COc1ccccc1/C=C/c1nc(Sc2cccc(O)c2)c2ccccc2n1
Prompt: Which value of inhibition at 0.5 µM is greater, the one for 1 or the one for 2 ? In your reply, give the label of the chosen option.
Response: 1

P: COc1ccccc1/C=C/c1nc(Sc2cc(Cl)ccc2Cl)c2ccccc2n1
Q: Cc1nc(Nc2ncc(C(=O)Nc3c(C)cccc3Cl)s2)cc(N2CCN(CCO)CC2)n1 [Dasatinib, dasatinib, reference compound]
Prompt: Rank P against Q by their inhibition at 0.5 µM values and give the higher one. Kindly give the label for the entry you pick.
Response: Q

P: COc1ccccc1/C=C/c1nc(Sc2ccccc2Cl)c2ccc(Cl)cc2n1
Q: COc1ccccc1/C=C/c1nc(Sc2cccc(Cl)c2)c2ccccc2n1
R: COc1ccccc1/C=C/c1nc(Sc2ccccc2Br)c2ccccc2n1
Prompt: Kindly order the items shown according to inhibition at 0.5 µM, from the highest value down. Reply: labels, ordered per the request.
Response: Q, R, P
(Q: 62.1%, R: 17.4%, P: 0%)

A: COc1ccccc1/C=C/c1nc(Sc2ccccn2)c2ccc(Cl)cc2n1
B: COc1ccc(/C=C/c2nc(Sc3ccccc3Cl)c3ccccc3n2)c(OC)c1
Prompt: Between the two listed entries A and B , which has its inhibition at 0.5 µM at the higher number? Answer with the label corresponding to your selection.
Response: B
(B: 15.5%, A: 0%)

---

target: Lyn B (Homo sapiens); construct: purchased Promega; test: Tyrosine kinase assay (Kinase Selectivity System TK-2, ADP-Glo); assay type: biochemical; conditions: 1 h incubation, mean ± SD of four experiments
Sequence (P07948 1-491 isoform P07948-2): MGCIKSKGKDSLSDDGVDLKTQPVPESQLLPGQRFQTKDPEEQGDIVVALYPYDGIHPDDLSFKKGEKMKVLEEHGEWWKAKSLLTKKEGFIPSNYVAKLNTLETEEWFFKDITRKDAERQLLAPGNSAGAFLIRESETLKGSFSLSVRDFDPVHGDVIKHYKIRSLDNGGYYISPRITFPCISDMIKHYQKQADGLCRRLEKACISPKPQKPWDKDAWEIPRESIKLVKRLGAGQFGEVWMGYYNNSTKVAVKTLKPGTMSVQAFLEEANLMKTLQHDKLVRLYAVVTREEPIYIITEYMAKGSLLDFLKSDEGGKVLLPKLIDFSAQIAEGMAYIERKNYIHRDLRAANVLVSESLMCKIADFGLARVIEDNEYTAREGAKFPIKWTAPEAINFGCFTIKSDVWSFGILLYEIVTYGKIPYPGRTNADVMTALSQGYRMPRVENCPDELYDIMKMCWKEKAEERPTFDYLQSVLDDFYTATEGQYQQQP
endpoint: inhibition at 0.5 µM (%)

Use the examples below as a reference point.
molecule	study system	display unit	quantitative readout
Cc1ccc(NC(=O)c2ccc(CN3CCN(C)CC3)cc2)cc1Nc1nccc(-c2cccnc2)n1 [Imatinib, imatinib, reference compound]	Lyn B (Homo sapiens)	%	0
COc1ccc(/C=C/c2nc(Sc3cc4c(cc3Br)OCO4)c3ccccc3n2)c(OC)c1	Lyn B (Homo sapiens)	%	0

1: COc1ccccc1/C=C/c1nc(Sc2cccc(Cl)c2)c2ccccc2n1
2: COc1ccccc1/C=C/c1nc(Sc2ccccn2)c2ccc(Cl)cc2n1
Prompt: For this pair, 1 and 2 , which shows a numerically higher inhibition at 0.5 µM? Return value: the label identifying the chosen record.
Response: 1

---

system: MCF-7; assay: Cytotoxicity studies (MTS), antiproliferative activity; assay type: cell-based, human; conditions: versus NHDF
We begin with a simple list: items and their reported Selectivity index MCF-7.
Just the number, please.

Some compounds with known Selectivity index MCF-7 results, for comparison:
compound	study system	Selectivity index MCF-7
COc1ccccc1/C=C/c1nc(Sc2ccc3c(c2)OCO3)c2ccccc2n1	MCF-7	1.54
COc1ccccc1/C=C/c1nc(Sc2ccccc2Cl)c2ccccc2n1	MCF-7	1.35
COc1ccccc1/C=C/c1nc(Sc2cccc(O)c2)c2ccccc2n1	MCF-7	3.11
COc1ccc(/C=C/c2nc(Sc3ccccc3Cl)c3ccccc3n2)c(OC)c1	MCF-7	1.00

Prompt: Would you mind telling me what Selectivity index MCF-7 value was observed for NC(=O)c1cccc(-c2cc(Nc3ccc(OC(F)(F)F)cc3)ncn2)c1 [GNF-2, reference compound] ?
Response: 1.00

---

test system: HCT 116 p53+/+; assay: Cytotoxicity studies (MTS), antiproliferative activity; assay type: cell-based, human; conditions: Homo sapiens, HCT-116; 72 h, MTS
# IC50 per entry

Some solved cases for reference:
molecule	IC50
COc1ccccc1/C=C/c1nc(Sc2cc(Cl)ccc2Cl)c2ccccc2n1 [IS3]	> 25 µM
COc1ccccc1/C=C/c1nc(Sc2ccccc2F)c2ccccc2n1 [IS5]	> 25 µM
COc1ccccc1/C=C/c1nc(Sc2ccccc2Cl)c2ccccc2n1 [IS1]	> 25 µM
COc1ccccc1/C=C/c1nc(Sc2ccccc2Br)c2ccccc2n1 [IS4]	> 10 µM
NC(=O)c1cccc(-c2cc(Nc3ccc(OC(F)(F)F)cc3)ncn2)c1 [GNF-2, reference compound]	> 25 µM
COc1ccccc1/C=C/c1nc(Sc2ccccn2)c2ccc(Cl)cc2n1 [IS14]	> 25 µM
COc1ccccc1/C=C/c1nc(Sc2ccc(SC)cc2)c2ccccc2n1 [IS9]	> 20 µM
COc1ccccc1/C=C/c1nc(Sc2cccc(O)c2)c2ccccc2n1 [IS8]	> 25 µM
COc1cccc(Sc2nc(/C=C/c3ccccc3OC)nc3cc(Cl)ccc23)c1 [IS13]	> 25 µM
COc1cccc(Sc2nc(/C=C/c3ccccc3OC)nc3ccccc23)c1 [IS7]	> 15 µM

Please look at the following molecule next.
Prompt: What value of measured IC50 is listed for COc1ccccc1/C=C/c1nc(Sc2cccc(Cl)c2)c2ccccc2n1 [IS2] ?
Response: 23.8 µM

---

target: Lck (Homo sapiens); construct: purchased Promega; assay: Tyrosine kinase assay (Kinase Selectivity System TK-2, ADP-Glo); format: biochemical; details: 1 h incubation, mean ± SD of four experiments
Sequence (P06239 whole entry): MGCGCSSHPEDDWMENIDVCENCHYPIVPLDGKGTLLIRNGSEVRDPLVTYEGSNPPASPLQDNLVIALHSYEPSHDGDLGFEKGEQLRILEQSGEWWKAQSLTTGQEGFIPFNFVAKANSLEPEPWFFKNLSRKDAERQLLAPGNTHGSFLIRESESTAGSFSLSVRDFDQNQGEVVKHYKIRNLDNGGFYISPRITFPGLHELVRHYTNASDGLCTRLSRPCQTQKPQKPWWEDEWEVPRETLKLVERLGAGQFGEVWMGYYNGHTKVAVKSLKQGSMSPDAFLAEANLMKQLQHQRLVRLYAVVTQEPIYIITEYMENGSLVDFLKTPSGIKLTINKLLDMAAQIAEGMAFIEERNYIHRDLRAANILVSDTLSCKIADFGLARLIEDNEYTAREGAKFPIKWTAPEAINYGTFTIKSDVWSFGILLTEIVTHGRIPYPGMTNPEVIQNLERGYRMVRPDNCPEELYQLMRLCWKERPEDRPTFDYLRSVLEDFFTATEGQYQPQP
endpoint: inhibition at 0.5 µM (%)

compound	display unit	inhibition at 0.5 µM
COc1ccccc1/C=C/c1nc(Sc2cccc(O)c2)c2ccccc2n1	%	0
COc1ccccc1/C=C/c1nc(Sc2cc3c(cc2Br)OCO3)c2ccc(Cl)cc2n1	%	51.5

P: COc1ccc(/C=C/c2nc(Sc3cc4c(cc3Br)OCO4)c3ccccc3n2)c(OC)c1
Q: COc1ccccc1/C=C/c1nc(Sc2ccc(SC)cc2)c2ccccc2n1
Prompt: When the recorded inhibition at 0.5 µM values are compared, which is smaller: that of P or that of Q ? Indicate your choice by writing its label.
Response: P
(P: 0%, Q: 60.7%)

I: COc1ccccc1/C=C/c1nc(Sc2ccccc2Cl)c2ccc(Cl)cc2n1
II: COc1ccccc1/C=C/c1nc(Sc2ccccn2)c2ccc(Cl)cc2n1
Prompt: Which of these two has the smaller recorded inhibition at 0.5 µM: I or II ? Refer to your chosen entry by its label in the reply.
Response: I

P: COc1cccc(Sc2nc(/C=C/c3ccccc3OC)nc3ccccc23)c1
Q: COc1ccccc1/C=C/c1nc(Sc2ccccc2Cl)c2ccccc2n1
Prompt: Quick one: lower inhibition at 0.5 µM, P or Q ? State the label of the item chosen.
Response: P
